# methodNotes: in vivo
# measurementConditions: male, CD1, mouse, plasma, iv, 1 mg/kg
endpointLabel: MRT last (min)
One number for each entry, in min.

>>> obsvalue("Cc1nc(Nc2ncc(C(=O)Nc3c(C)cccc3Cl)s2)cc(N2CCN(CCO)CC2)n1 [Compound A8, reference compound]")
78

Could you now look at the following molecule, please?
[in] Query: MRT last; subject: `Cc1nc(Nc2ncc(C(=O)Nc3c(Cl)ccnc3C)s2)cc(N2CCN(CCO)CC2)n1`
[out] 15

* * *

# methodNotes: in vivo
# measurementConditions: male, CD1, mouse, plasma, iv, 1 mg/kg
endpointLabel: AUC(0-inf)
Number first, unit second: that is the form wanted.

[in] Query: AUC(0-inf); subject: `Cc1nc(Nc2ncc(C(=O)Nc3c(Cl)ccnc3C)s2)cc(N2CCN(CCO)CC2)n1`
[out] 0.45 µM·h

* * *

# System: MC38 cells
# methodNotes: cells
# measurementConditions: Mus musculus, MC-38, 72 h, read-out: MC38 IC50 (nM at 100 ng/mL TNF)
endpointLabel: IC50

Answered cases to consult:
>>> obsvalue("CC(=O)N1CCN(c2cc(Nc3ncc(C(=O)Nc4c(C)csc4Cl)s3)nc(C)n2)CC1")
"> 200 nM"
>>> obsvalue("Cc1nc(Nc2ncc(C(=O)Nc3c(Cl)csc3C)s2)cc(N2CCN(CCO)CC2)n1 [Compound D1]")
"< 200 nM"
>>> obsvalue("Cc1nc(Nc2ncc(C(=O)Nc3c(C)csc3Cl)s2)cc(N2CCN(CCO)CC2)n1")
"< 100 nM"

Hello, I would appreciate it if you could give IC50 for each entry below.
1. Cc1nc(Nc2ncc(C(=O)Nc3c(Cl)csc3Cl)s2)cc(N2CCN(CCO)CC2)n1
2. Cc1nc(Nc2ncc(C(=O)Nc3c(C)csc3Cl)s2)cc(N2CCN(C)CC2)n1

[out]
< 200 nM
< 100 nM

* * *

# methodNotes: in vivo
# measurementConditions: male, CD1, mouse, plasma, po, 30 mg/kg
endpointLabel: AUC(0-t) (µM·h)
One number for each entry, in µM·h.

[in] Query: AUC(0-t); subject: Cc1nc(Nc2ncc(C(=O)Nc3c(Cl)ccnc3C)s2)cc(N2CCN(CCO)CC2)n1 [Compound B3]
[out] 0.589

* * *

# methodNotes: in vivo
# measurementConditions: male, CD1, mouse, plasma, iv, 1 mg/kg
Exercise: state measured Cmax for each of the compounds provided.
One number for each entry, in nM.

>>> obsvalue("Cc1nc(Nc2ncc(C(=O)Nc3c(Cl)ccnc3C)s2)cc(N2CCN(CCO)CC2)n1")
1230

Could you now look at the following compound, please?
[in] Query: Cmax; subject: Cc1nc(Nc2ncc(C(=O)Nc3c(C)cccc3Cl)s2)cc(N2CCN(CCO)CC2)n1 [Compound A8, reference compound]
[out] 1280

* * *

# methodNotes: physchem
# Format: physicochemical
# measurementConditions: kinetic from dmso stock
endpointLabel: solubility kinetic

Hello, I would appreciate it if you could give solubility kinetic for each entry below.
1. Cc1nc(Nc2ncc(C(=O)Nc3c(C)nn(C)c3C)s2)cc(N2CCN(CCO)CC2)n1
2. Cc1nc(Nc2ncc(C(=O)Nc3c(C)noc3C)s2)cc(N2CCN(CCO)CC2)n1
3. Cc1nc(Nc2ncc(C(=O)Nc3ncccc3C)s2)cc(N2CCN(CCO)CC2)n1

[out]
["128 to 195 µM", "128 to 195 µM", "128 to 195 µM"]
